experimental.system: SARM1 SAM-TIR (Homo sapiens, UniProt Q6SZW1)
Construct: a fragment of the SARM1 molecule encompassing the SAM and TIR domains; made in house; host or cells: NRK1-HEK293T cells, transiently transfected; the cleared, unpurified lysate was used as the enzyme
Sequence (Q6SZW1 409-724 limits assumed): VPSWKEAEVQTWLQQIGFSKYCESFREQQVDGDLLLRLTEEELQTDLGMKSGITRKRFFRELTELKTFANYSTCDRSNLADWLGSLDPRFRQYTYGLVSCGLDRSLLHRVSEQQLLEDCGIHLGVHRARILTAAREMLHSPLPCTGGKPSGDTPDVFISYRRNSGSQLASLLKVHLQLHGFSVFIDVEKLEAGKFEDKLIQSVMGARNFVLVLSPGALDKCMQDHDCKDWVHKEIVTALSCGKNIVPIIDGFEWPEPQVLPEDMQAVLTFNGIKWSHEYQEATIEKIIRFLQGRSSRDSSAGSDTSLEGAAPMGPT
test: biochemical
assay.context: SAM-TIR lysate 5 μg/mL, 2 h pre-incubation, 5 μM NAD+, RapidFire MS of NAD+ and ADPR; read-out: SARM1 IC50
pIC50: −log10 of the molar value.
quantity.measured: pIC50

Please review the following examples before continuing.
# record.smiles, pIC50
rows = [
    ("COCCN(C)C(=N)c1c(Nc2cccc(Cl)c2Cl)s[nH]c1=O", "5.30 to 6.00"),
    ("N#Cc1c(Nc2cccc(Cl)c2Cl)sn(CCO)c1=O", "> 6.00"),
    ("COCCn1sc(Nc2c(OC)cccc2C(F)(F)F)c(C#N)c1=O", "> 6.00"),
]

Request: pIC50, test system SARM1 SAM-TIR (Homo sapiens, UniProt Q6SZW1), entry Cn1sc(Nc2c(Cl)ccc3c2CCO3)c(C#N)c1=O
> 6.00

Provide value of pIC50 for this record tested with SARM1 SAM-TIR (Homo sapiens, UniProt Q6SZW1): CN(C)C(=N)c1c(Nc2ccccc2Cl)sn(C)c1=O
> 6.00

Given the entry CC(C)c1ccc(Nc2snc(O)c2C#N)cc1 , what pIC50 was observed with SARM1 SAM-TIR (Homo sapiens, UniProt Q6SZW1)?
< 5.30

Please state recorded pIC50 (tested on SARM1 SAM-TIR (Homo sapiens, UniProt Q6SZW1)) of N#Cc1c(O)nsc1Nc1ccccc1;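 further: inhibition of SARM1 SAM-TIR NADase activity, i.e. NAD+ cleavage, using lysate of NRK1-HEK293T cells overexpressing the SAM-TIR fragment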
5.30 to 6.00

Item COc1ccc2ncccc2c1Nc1sn(C)c(=O)c1C#N with SARM1 SAM-TIR (Homo sapiens, UniProt Q6SZW1) - pIC50?
> 6.00
